Please provide measured IC50 for the entries that follow.
Numbers only here, please. The scale is nM.

Lab entry: purified HDAC6 (Homo sapiens, UniProt Q9UBN7) assay, compound CCC(CC)(c1ccc(OCC(=O)NO)cc1)c1ccc(OCC(O)C(C)(C)C)c(C)n1 (stereo not shown) [AM-191] , IC50 = 1900

Record CCC(CC)(c1ccc(C(=O)NCCCCCC(=O)NO)cc1)c1ccc(OCC(O)C(C)(C)C)c(C)c1 (stereo not shown) [DK-406] has purified HDAC6 (Homo sapiens, UniProt Q9UBN7) IC50 equal to 600

# value of IC50, purified HDAC6 (Homo sapiens, UniProt Q9UBN7), item CCC(CC)(c1ccc(OCC(O)C(C)(C)C)c(C)c1)c1ccc(OCC(=O)NO)cn1 (stereo not shown) [AM-155] = 2800

Case CCC(CC)(c1ccc(OCCCCCC(=O)NO)cc1)c1ccc(OCC(O)C(C)(C)C)c(C)n1 (stereo not shown) [AM-193] , purified HDAC6 (Homo sapiens, UniProt Q9UBN7), IC50 recorded as 300

* * *

Record form. Attribute: pIC50. Fill in for each entry.
biological target: purified HDAC2 (Homo sapiens, UniProt Q92769); construct: purchased Cayman Chemical; test: Fluorogenic HDAC inhibition assay, HDAC2; type: biochemical; settings: purified HDAC2, fluorometric substrate
Sequence (Q92769 whole entry): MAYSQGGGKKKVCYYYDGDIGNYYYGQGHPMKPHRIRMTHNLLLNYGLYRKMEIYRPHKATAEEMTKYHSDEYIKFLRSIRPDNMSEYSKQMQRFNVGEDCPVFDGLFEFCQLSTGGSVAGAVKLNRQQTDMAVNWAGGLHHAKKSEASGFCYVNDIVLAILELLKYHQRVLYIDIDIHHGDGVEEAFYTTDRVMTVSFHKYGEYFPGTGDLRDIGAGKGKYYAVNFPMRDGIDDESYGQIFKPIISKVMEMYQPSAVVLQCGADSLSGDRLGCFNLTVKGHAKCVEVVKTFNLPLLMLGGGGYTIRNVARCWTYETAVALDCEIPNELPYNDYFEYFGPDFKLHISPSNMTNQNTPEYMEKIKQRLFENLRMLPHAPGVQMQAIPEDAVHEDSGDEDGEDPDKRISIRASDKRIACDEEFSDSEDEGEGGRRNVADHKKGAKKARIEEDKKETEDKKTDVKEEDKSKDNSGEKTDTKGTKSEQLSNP
By convention, pIC50 is the negative base-10 log of a molar concentration.

Summary for this compound, CCC(CC)(c1ccc(OCC(O)C(C)(C)C)c(C)c1)c1ccc(OCC(=O)NO)cn1 (centres unmarked) : pIC50 is 5.77

Field pIC50 (entry CCC(CC)(c1ccc(OCCCC(=O)NO)cc1)c1ccc(OCC(O)C(C)(C)C)c(C)n1 (centres unmarked) ) reads 5.19

Data point: CCC(CC)(c1ccc(C(=O)NCCCCCC(=O)NO)cc1)c1ccc(OCC(O)C(C)(C)C)c(C)c1 (centres unmarked) ; pIC50 = 6.30

pIC50 in this record for CCC(CC)(c1ccc(OCC(O)C(C)(C)C)c(C)c1)c1ccc(OCCCC(=O)NO)cn1 (centres unmarked) : 5.02

The reported pIC50 of the compound CCC(CC)(c1ccc(OCCCCCC(=O)NO)cc1)c1ccc(OCC(O)C(C)(C)C)c(C)n1 (centres unmarked) was 5.14

* * *

experiment: Aqueous solubility after sonication; type: physicochemical; conditions: water; after sonication for 30 min
READOUT: solubility at 30 min (µg/mL)
Write the answer as a number in µg/mL, unit excluded.

solubility at 30 min reported for this compound CCC(CC)(c1ccc(OCCCCCC(=O)NO)cc1)c1ccc(OCC(O)C(C)(C)C)c(C)c1 (centres unmarked) : 1.91

Please fill in: solubility at 30 min reported for CCC(CC)(c1ccc(OCCCCCC(=O)NO)cc1)c1ccc(OCC(O)C(C)(C)C)c(C)n1 (centres unmarked) = 2.43

* * *

Target: VDR (Mus musculus, UniProt P48281)
Construct: endogenous in cells; host or cells: 4TO7 and 4T1 mouse triple-negative breast cancer cells
Sequence (P48281 whole entry): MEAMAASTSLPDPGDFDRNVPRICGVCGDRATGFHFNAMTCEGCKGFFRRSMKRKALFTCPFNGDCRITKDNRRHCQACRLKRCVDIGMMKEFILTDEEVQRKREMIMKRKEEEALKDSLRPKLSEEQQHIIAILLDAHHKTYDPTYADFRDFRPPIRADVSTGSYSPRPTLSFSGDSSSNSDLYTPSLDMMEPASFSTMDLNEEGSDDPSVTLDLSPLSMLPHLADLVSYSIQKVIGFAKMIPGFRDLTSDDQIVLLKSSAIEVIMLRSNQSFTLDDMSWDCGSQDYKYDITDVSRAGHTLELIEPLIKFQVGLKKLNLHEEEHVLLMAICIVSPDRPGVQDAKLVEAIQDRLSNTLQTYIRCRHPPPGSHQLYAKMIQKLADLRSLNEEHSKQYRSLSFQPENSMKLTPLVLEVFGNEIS
Experiment: Cyp24a1 induction assay for VDR agonism in 4TO7 cells
Type: cell-based
Details: 24 h
Protocol: Figure 5 (a) and (b) Analysis of induced Cyp24a1 expression in 4TO7 (a) and 4T1 (b) cells to test for VDR agonism of DK-406 and heterocyclic analogues after 24 h treatment. c-e. Analysis of the cytotoxicity of hybrid compounds after 24 h using the MTGlo assay (see Methods for details) in 4TO7 (c), 4T1 (d) and MDA-MB-231 (e) cells. […] As previously, we were interested in studying the efficacy of hybrids in models of TNBC. […] 4TO7 cells readily form primary tumors. […]

{"COMPOUND": "CCC(CC)(c1ccc(OCCCCCC(=O)NO)cc1)c1ccc(OCC(O)C(C)(C)C)c(C)n1 (stereo not shown)", "VDR agonist activity (Cyp24a1 induction)": "partial agonists"}
{"COMPOUND": "CCC(CC)(c1ccc(C(=O)NCCCCCC(=O)NO)cc1)c1ccc(OCC(O)C(C)(C)C)c(C)c1 (stereo not shown)", "VDR agonist activity (Cyp24a1 induction)": "partial agonists"}
